Provenance of the data: paper PMC10397247

# target-under-test: T1, APC2724-AA
# T1 chain: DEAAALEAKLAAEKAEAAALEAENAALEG
# experiment-description: two-hybrid library CCmax;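 note: natural log of median RNA to DNA barcode read ratio; higher means stronger binding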
# test-settings: mean of both orientations
property-name: interaction score

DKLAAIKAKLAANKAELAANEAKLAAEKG [APC1987-AA]	-1.7
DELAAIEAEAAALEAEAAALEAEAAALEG [APC222-AA]	-2.15
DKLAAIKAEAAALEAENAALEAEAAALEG [APC1242-AA]	-1.96
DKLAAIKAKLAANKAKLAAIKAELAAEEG [APC1916-AA]	-1.83
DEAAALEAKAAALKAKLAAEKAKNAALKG [APC2375-AA]	-1.62
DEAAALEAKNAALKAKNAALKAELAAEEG [APC2556-AA]	-1.65
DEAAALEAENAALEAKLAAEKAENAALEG [APC2474-AA]	-1.93
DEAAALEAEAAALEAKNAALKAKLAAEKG [APC2257-AA]	-1.47
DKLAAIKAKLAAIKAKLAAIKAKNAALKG [APC1115-AA]	-1.69
